target: 6His-Tev-LRRK2 (1326-2527) (Homo sapiens); construct: A LRRK2 cDNA encoding residues 1326-2527 was received from Dundee University; made in house; host or cells: Spodoptera frugiperda (Sf9) insect cells, baculovirus (pFB-HTb); test: LRRK2 peptide substrate assay; assay type: biochemical; details: mean pIC50 of multiple test results; stated as threshold; read-out: pIC50 in the LRRK2 peptide substrate assay (bounds) (converted)
Sequence (Q5S007 1326-2527): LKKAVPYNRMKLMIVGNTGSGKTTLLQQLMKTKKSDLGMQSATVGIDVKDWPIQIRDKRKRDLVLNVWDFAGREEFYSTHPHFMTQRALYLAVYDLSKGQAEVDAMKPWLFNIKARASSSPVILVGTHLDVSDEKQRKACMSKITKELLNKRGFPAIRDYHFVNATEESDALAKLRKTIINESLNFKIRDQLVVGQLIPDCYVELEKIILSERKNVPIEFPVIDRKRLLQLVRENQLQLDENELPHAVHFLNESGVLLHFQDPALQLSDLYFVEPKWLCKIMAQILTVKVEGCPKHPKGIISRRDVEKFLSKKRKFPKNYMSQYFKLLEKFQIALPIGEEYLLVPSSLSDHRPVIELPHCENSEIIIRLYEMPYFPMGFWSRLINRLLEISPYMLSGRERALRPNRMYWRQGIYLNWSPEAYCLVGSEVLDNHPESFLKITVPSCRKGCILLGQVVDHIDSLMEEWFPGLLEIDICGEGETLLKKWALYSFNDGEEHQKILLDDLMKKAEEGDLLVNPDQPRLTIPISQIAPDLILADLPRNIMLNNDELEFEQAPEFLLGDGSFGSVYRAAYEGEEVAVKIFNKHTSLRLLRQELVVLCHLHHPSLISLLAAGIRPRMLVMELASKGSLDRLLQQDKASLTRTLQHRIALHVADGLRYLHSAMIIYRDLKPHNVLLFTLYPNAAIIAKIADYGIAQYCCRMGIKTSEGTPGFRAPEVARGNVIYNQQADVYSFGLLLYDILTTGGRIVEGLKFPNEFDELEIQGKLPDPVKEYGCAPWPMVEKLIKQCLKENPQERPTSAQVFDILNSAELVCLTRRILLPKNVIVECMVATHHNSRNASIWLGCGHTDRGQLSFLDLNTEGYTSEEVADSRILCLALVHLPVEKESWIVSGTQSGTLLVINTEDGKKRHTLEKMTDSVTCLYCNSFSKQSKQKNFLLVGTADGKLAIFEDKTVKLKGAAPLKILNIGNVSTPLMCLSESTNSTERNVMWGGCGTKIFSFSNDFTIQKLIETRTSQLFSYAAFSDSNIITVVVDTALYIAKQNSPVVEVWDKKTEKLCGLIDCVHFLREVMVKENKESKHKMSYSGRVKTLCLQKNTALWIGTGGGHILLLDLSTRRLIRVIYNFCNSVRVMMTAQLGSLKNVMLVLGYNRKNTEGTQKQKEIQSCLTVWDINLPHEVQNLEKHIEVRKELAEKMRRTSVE
Counter-ions that a name gives are not always drawn.
Parameter IC50: see the listing below.

Record excerpt, results attached:
> print(dat)
                                   compound                       experimental.target  recorded.metric    result
1  Cn1cc(-c2cc(C(=O)Nc3ccnnc3)c(OCc3ccc(F)cc3)cc2C(=O)N2CCOCC2)cn1  6His-Tev-LRRK2 (1326-2527) (Homo sapiens)             IC50  ≤ 100 nM
2  Cn1cc(-c2cc(C(=O)Nc3cccc(Cl)c3)c(OCc3ccc(F)cc3)cc2C(=O)N2CCOCC2)cn1  6His-Tev-LRRK2 (1326-2527) (Homo sapiens)             IC50   ≤ 10 nM
3  Cn1cc(-c2cc(C(=O)Nc3cccnc3)c(OCc3ccc(F)cc3F)cc2CN2CCOCC2)cn1  6His-Tev-LRRK2 (1326-2527) (Homo sapiens)             IC50  ≤ 100 nM
4  Cn1cc(-c2cc(C(=O)Nc3cccnc3)c(OCc3ccccc3)cc2C(=O)N2CCCCC2)cn1  6His-Tev-LRRK2 (1326-2527) (Homo sapiens)             IC50   ≤ 10 nM
5  O=C(Nc1ccnnc1)c1cc(Cl)c(C(=O)N2CCOCC2)cc1OCc1ccccc1  6His-Tev-LRRK2 (1326-2527) (Homo sapiens)             IC50  ≤ 100 nM

Lab note: next compound to report on.
## Task Indicate the recorded IC50 value for this compound: Cn1cc(-c2cc(C(=O)Nc3cccc(Cl)c3)c(OCc3ccccc3)cc2CN2CCOCC2)cn1 [Example 50, Hydrochloride]
## Result ≤ 100 nM
